Origin of measurements: ChEMBL document CHEMBL3286269

Tested on: Streptococcus sp. 'group A'
assay comment: Antibacterial activity against group A streptococcus MGAS2221 after 12 hrs by microscopic count analysis
Type: functional
condition summary: MGAS2221, 12 h
Please go through the items and note down their MIC.
Write the number in µM without appending the unit.

Input line: Hello, please tell me recorded MIC for this one: `Cc1ccc([N+](=O)[O-])c(NC(=O)NC(=O)c2c(Cl)cccc2Cl)c1C`
Output line: 50

Input line: Return MIC for the following compound: Oc1c(Cl)cc(Cl)cc1/C=N/CC1CCCO1 (configuration not stated)
Output line: 20

Input line: Note down MIC recorded for `O=Cc1cc(Cl)cc(Cl)c1O`
Output line: 20

Input line: Query MIC for O=C1NN=CC1CCC/N=C/c1cc(Cl)cc(Cl)c1O (configuration not stated)
Output line: 10

Input line: Output measured MIC for this item: `OCC/N=C/c1cc(Cl)cc(Cl)c1O`
Output line: 20

Input line: Give the reported MIC for this compound. O=C1NN=CC1CCC/N=C/c1cc(Br)ccc1O (configuration not stated)
Output line: 40

Input line: Please report MIC for the following compound: Oc1c(Cl)cc(Cl)cc1/C=N/CC1CCC(C/N=C/c2cc(Cl)cc(Cl)c2O)CC1 (configuration not stated)
Output line: 10
